Hello, the source for this data is paper PMC9598656, in case you need it.

Entries and their measured IC50 follow.
Tested on: MDBK (normal Madin–Darby bovine kidney cell line)
assay-info: In vitro cytotoxicity, WST-1
Assay type: cell-based
condition-context: Bos taurus, 24 h, second of two independent experiments
quantity: IC50 (µg/mL)

INSERT INTO results (compound, target_or_test_system, value_unit, limit_qualifier, val) VALUES
  ('[H]/N=C(\N)NN=C(CC1CCCCC1)c1ccc(Cl)cc1 [NCL259]', 'MDBK (normal Madin–Darby bovine kidney cell line)', 'µg/mL', '=', 2),
  ('[H]/N=C(\N)NN=C(CCCCCC)c1ccc(Cl)cc1 [NCL265]', 'MDBK (normal Madin–Darby bovine kidney cell line)', 'µg/mL', '=', 2),
  ('N=C(N/N=C/c1ccc(Cl)cc1)N/N=C/c1ccc(Cl)cc1 [NCL812, Robenidine]', 'MDBK (normal Madin–Darby bovine kidney cell line)', 'µg/mL', '=', 12),
  ('CC1(C)S[C@@H]2[C@H](NC(=O)[C@H](N)c3ccccc3)C(=O)N2[C@H]1C(=O)O [Ampicillin, reference compound]', 'MDBK (normal Madin–Darby bovine kidney cell line)', 'µg/mL', '>', 128);

====

System: HEL 299 (non-cancerous human lung fibroblast cell line)
assay-info: In vitro cytotoxicity, WST-1
Format: cell-based
condition-context: HEL 299, 24 h, second of two independent experiments
Consider the following compounds and their measured IC50 readings.
quantity: IC50

INSERT INTO results (compound, target_or_test_system, val) VALUES
  ('[H]/N=C(\N)NN=C(CC1CCCCC1)c1ccc(Cl)cc1 [NCL259]', 'HEL 299 (non-cancerous human lung fibroblast cell line)', '< 2 µg/mL'),
  ('[H]/N=C(\N)NN=C(CCCCCC)c1ccc(Cl)cc1 [NCL265]', 'HEL 299 (non-cancerous human lung fibroblast cell line)', '< 2 µg/mL'),
  ('CC1(C)S[C@@H]2[C@H](NC(=O)[C@H](N)c3ccccc3)C(=O)N2[C@H]1C(=O)O [Ampicillin, reference compound]', 'HEL 299 (non-cancerous human lung fibroblast cell line)', '> 128 µg/mL'),
  ('N=C(N/N=C/c1ccc(Cl)cc1)N/N=C/c1ccc(Cl)cc1 [NCL812, Robenidine]', 'HEL 299 (non-cancerous human lung fibroblast cell line)', '6 µg/mL');
